# EXPERIMENTAL_DETAILS: AUC in Beagle dog at 2 mg/kg, iv
# Type: ADME, organism-based, Canis lupus familiaris
# Parameters: dose 2 mg/kg, route intravenous
# EXPERIMENTAL_CONTEXT: plasma
OBSERVABLE: AUC
# output: number + unit

I have this compound here, Cc1cc(COc2ccc(C(=O)NC3(CC(=O)NO)CCOCC3)cc2)c2ccccc2n1 , and I need its recorded AUC. 1.97 µM·h

---

# EXPERIMENTAL_DETAILS: AUC in Sprague-Dawley rat at 30 mg/kg, po
# Type: ADME, organism-based
# Parameters: dose 30 mg/kg, route oral
# EXPERIMENTAL_CONTEXT: plasma
OBSERVABLE: AUC (µM·h)
The reply should be a number in µM·h, with the unit left off.

For the compound shown here, Cc1cc(COc2ccc(C(=O)NC3(CC(=O)NO)CCOCC3)cc2)c2ccccc2n1 , give the reported AUC. 4.86
